Each recorded value in this set is attributed to patent US20090269394A1.

Test system: Trichophyton mentagrophytes
Method description: MIC/MFC microtiter broth dilution
Assay type: cell-based
Measurement context: Trichophyton mentagrophytes; read-out: MIC50

{"columns": ["Compound", "Test system", "MIC50 / µg/mL"],
 "data": [
  ["Cc1cc(C2CCCCC2)n(O)c(=O)c1", "Trichophyton mentagrophytes", 0.5],
  ["Clc1ccc(COC(Cn2ccnc2)c2ccc(Cl)cc2Cl)cc1 (stereo not shown)", "Trichophyton mentagrophytes", 0.25],
  ["CN(C/C=C/C#CC(C)(C)C)Cc1cccc2ccccc12", "Trichophyton mentagrophytes", 0.0313],
  ["COC1=CC(=O)C[C@@H](C)[C@]12Oc1c(Cl)c(OC)cc(OC)c1C2=O", "Trichophyton mentagrophytes", 0.5]
]}
